# assay.name: inhibitors of poly I:C-induced TLR3 signaling, primary screen, cell-based, poly I:C stimulus, luciferase, 10K MLSCN set (AID 602277)
# experimental.context: HEK293-TLR3 RL24 IRF3 luciferase reporter, at 10 µM, stronger effect = higher value
readout.kind: inhibition (%)
Answers are plain numbers, in %.

Reported inhibition, molecule "COc1ccc2c(c1OC)C(=O)O[C@@H]2[C@H]1c2c(cc3c(c2OC)OCO3)CCN1C" : ____
32.2

Give inhibition for all molecules that follow.
1. CN1CCCN(C(c2ccccc2)c2ccc(Cl)cc2)CC1 (stereo unspecified)
2. Cc1cccc(N2C(=O)CC(N3CCN(Cc4ccc(Cl)cc4)CC3)C2=O)c1 (stereo unspecified)
3. COc1cccc(-c2nnc3sc(-c4ccc(C)cc4)nn23)c1
4. c1ccc(-c2nnc(OCCN3CCOCC3)c3ccccc23)cc1
5. CCOC(=O)/C(C#N)=C1\Nc2ccccc2N=C1N(CC(C)C)CC(C)C

68.6
18
34.9
20.9
-1.84

* * *

Kindly state inhibition for each of the entries shown.
# assay.name: inhibitors of TNFa-induced NFkB p65 translocation, primary screen, imaging, HUVEC, MLSMR starter and 10KST1 sets (AID 438);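 also: compound added about 3h40 before a 20 min TNFalpha stimulation; signal is the nuclear over cytoplasmic p65 intensity ratio per well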
# experimental.context: HUVEC TNFa-induced p65 nuclear translocation; at 2 µM, stronger effect = higher value, 0% TNFa-plus-vehicle, 100% no-TNFa wells
One number for each entry, in %.

Reported inhibition, compound "C[C@@H]1C[C@H]2[C@@H]3CCC4=CC(=O)C=C[C@]4(C)[C@@]3(F)[C@@H](O)C[C@]2(C)[C@H]1C(=O)CO" : ____
-8.8

Give inhibition for all compounds that follow.
1. CC(=O)OC(C)C[N+](C)(C)C (stereo not drawn)
2. O=S1(=O)C[C@@H](N2CCOCC2)[C@H](N2CCOCC2)C1
3. CC(C)NCC(O)COc1ccc(CCOCC2CC2)cc1 (stereo not drawn)
4. Cc1cc(C)nc(N(C#N)S(=O)(=O)c2ccccc2Cl)n1
5. CCOCCSc1nc2c(c(=O)[nH]c(=O)n2C)n1CCCc1ccccc1

1: 2.7; 2: 3.1; 3: -5.6; 4: -11.5; 5: -2.4

Give inhibition for all compounds that follow.
1. O=C(NCC(F)(F)F)N1CCOCC1
2. CC1(C)Cc2c(sc3c2C2=NCCN2C=N3)CO1
3. Cc1cc(NC(=O)C2=C(O)c3ccccc3S(=O)(=O)N2C)no1
4. CCCCn1c2nc3ccccc3nc2c2c(=O)n(CC(C)C)cnc21
5. CC(=O)OCC(=O)[C@H]1CC[C@H]2[C@@H]3CC=C4C[C@@H](O)CC[C@]4(C)[C@H]3CC[C@]12C
6. Cc1cccc(OCC(=O)N2CCC(N3CCCCCC3)CC2)c1
7. Cc1ccc(SCc2nnc(N)s2)cc1

1. 11.2
2. -7
3. -7.5
4. 2.5
5. -9.5
6. -7.8
7. -16.4

* * *

Kindly state nuclei count for each of the entries shown.
# assay.name: inhibitors of E-selectin induction by TNFa, primary screen, imaging, HUVEC, immunofluorescence, MLSMR starter and 10KST1 sets (AID 487);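 also: 100% = median nuclei count of all wells on the same plate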
# experimental.context: HUVEC TNFalpha-induced E-selectin immunofluorescence imaging, at 2 µM; measured here: cell number, toxicity
Form field: result (number plus unit)

Solved cases below.
Reported nuclei count, molecule CCOC(=O)CCCCC(=O)NC(CO)C(=O)NC (stereo not drawn) : ____
204%

Please give the result for "Cc1csc(NC(=O)CSc2nsc(SCC(=O)Nc3nc(C)cs3)c2C#N)n1" too.
141%

Please give the result for CC(C)COc1nc2ccccc2nc1C(C#N)C(=O)NC1CCCCC1 (stereo not drawn) too.
133%

Give nuclei count for all molecules that follow.
1. Cc1cc2c(c(=O)n1Cc1cccnc1)C(c1ccccc1)C(C#N)=C(N)O2 (stereo not drawn)
2. CN1CCN(c2ncnc3c2[nH]c2ccc(F)cc23)CC1
3. CN(C)CCCN1c2ccccc2CCc2ccc(Cl)cc21
4. Cc1cc(C(F)(F)F)c(C#N)c(SCC(=O)NC2CC2)n1
5. Cn1c(O)c(C=Nc2ccc(Cc3ccncc3)cc2)c(=O)n(C)c1=O
6. COCCCNC(=O)c1c(N)n(/N=C/c2cccs2)c2nc3ccccc3nc12

["160%", "64.2%", "124%", "99.8%", "136%", "125%"]
